test: small-molecule microarray binders of probe aNog, primary screen, biochemical, biotinylated probe, 635/667 nm fluorescence (AID 1115); conditions: higher = more signal;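 further: probe is biotinylated aNog protein used at 0.15 µg/mL for 1 h at 4 C; z-score combines 667 nm fluorescence of each spot with its signal to noise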
Outcome measure: composite z-score
Give bare numbers.

The cases that follow already have their composite z-score on record.
In [3]: df
Out[3]:
                                   compound    outcome_measure  result_value
0                   Cc1nc2cc(Br)ccc2c(=O)o1  composite z-score        -0.483
1  CC1CC/C=C\[C@H]2OC34C=CCN(C(C)(C)C)C(=O)[C@H]3N(CCO)C(=O)[C@@H]4C2C(=O)O1 (stereo partly drawn)  composite z-score         0.489
2  C=C[C@H](CO[Si](CC)(CC)CC)N(Cc1ccc(OC(C)=O)c(OC)c1)S(=O)(=O)c1ccc(Br)cc1  composite z-score        0.0481
3  Cc1ccc(S[C@]2(C(=O)NCCCN(C)C)CC(=O)N(Cc3ccccc3C(F)(F)F)[C@@H]2c2ccc(CO)cc2)cc1  composite z-score         0.216
4  CCCC[C@@H]1C[C@H]1[C@@H](NC(=O)c1ccco1)c1ccccc1C(F)(F)F  composite z-score          2.94
5  CC(C)c1ccc(NN2C(C(O)c3ccc(B(O)O)cc3)C=CC3C(=O)N(c4ccccc4)C(=O)C32)cc1 (stereo not drawn)  composite z-score          2.19
6  COC(=O)[C@@]1(Cc2ccc(F)cc2)[C@H]2c3cc(C(=O)N4CCCC4)n(Cc4ccc(S(C)(=O)=O)cc4)c3C[C@H]2CN1C(=O)c1ccccc1  composite z-score          1.89

Input: Which composite z-score value is on record for O=C(CS)NCCCCCCNC(=O)[C@@H]1C[C@@H]2C(=O)N[C@@H](Cc3ccccc3)C(=O)N2[C@@H]1c1cccc(OCCO)c1 ?
Output: 0.0637

----------
experiment: basal RPMI8226 viability, no added stimulus, profiling panel, cell-based, calcein-AM fluorescence, 48 h, PK04 Diversity Set (AID 1166); conditions: RPMI8226 myeloma viability, higher = more signal;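 further: cells grown under basal conditions without added stimulus; test concentration not given here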
Param label: returns Y when z-score < 0.09, returns N otherwise, including exact equality.

Take a look at these entries with their results.
Compound	Assigned label
CCCC[C@@H]1C[C@H]1[C@@H](NC(=O)C(C)(C)C)c1ccc(C(F)(F)F)cc1	Y
CCOC(=O)C[C@H]1[C@H](OC(=O)c2cc3ccccc3oc2=O)[C@@H](NC(=O)c2ccccc2)c2cc(OCCCO)ccc2N1C(=O)c1ccc2ccccc2n1	Y
COCCOC(=O)N1C(=O)[C@@]2(c3cc(C#CCC(C(=O)OC)C(=O)OC)ccc31)[C@H](C(=O)Nc1nc3ccccc3s1)[C@H]1C(=O)O[C@H](c3ccccc3)[C@H](c3ccccc3)N1[C@@H]2c1ccccc1OCCO	N
C=CCNC(=O)[C@@H]1[C@H]2C(=O)O[C@H](c3ccccc3)[C@H](c3ccccc3)N2[C@H](c2ccccc2OCCO)[C@@]12C(=O)N(C(=O)OCCOC)c1ccccc12	Y
C=CCNC(=O)[C@@H]1[C@H]2C(=O)O[C@H](c3ccccc3)[C@H](c3ccccc3)N2[C@H](c2ccc(OCCO)cc2)[C@@]12C(=O)Nc1ccc(C#CCC(C(=O)OC)C(=O)OC)cc12	Y

--- query ---
Input: Strictly below 0.09 in z-score? COc1cc2c(cc1O)C(c1cccs1)N(C)CC2 (configuration not stated)
Output: N

Reference source for all entries: PubChem BioAssay
